Form field: logD (one value per entry).
# Assay Overview: Octanol-water partition coefficient, logD of the compound at pH 2 by HPLC analysis
# Type: physicochemical
# Condition Info: read-out: logD
Parameter Measured: logD

| Smiles | Parameter Measured | Numeric Readout |
| --- | --- | --- |
| Cn1cc(C(=O)c2ccccc2)c2cc(C(=O)NCCO)ccc21 | logD | 1.6 |
| O=C(NCCc1c[nH]c2ccccc12)c1ccc2ccc(C(=O)c3ccccc3)c-2cc1 | logD | 4.4 |
| O=C(NCc1cccnc1)c1ccc2ccc(C(=O)c3ccccc3)c-2cc1 | logD | 1.4 |
| O=C(Nc1cc2cccccc-2c1)c1cccnc1 | logD | 1.3 |
| O=C(Nc1ccc2ccccc2c1)c1cccnc1 | logD | 1.4 |

----------
# Assay Overview: Aqueous solubility of the compound at pH 4.5 incubated for 24 hrs under shaking condition by LC-UV analysis
# Format: physicochemical
# Condition Info: aqueous medium
Form field: solubility thermodynamic at 24 h (one value per entry).
Parameter Measured: solubility thermodynamic at 24 h

| Smiles | Result |
| --- | --- |
| COC(=O)c1ccc2c(C(=O)c3ccccc3)cn(C(=O)c3ccccc3)c2c1 | < 1 µg/mL |
| NC(=O)C1CCN(C(=O)c2cccc3ccccc23)CC1 | > 71 µg/mL |
| COC(=O)c1ccc2c(C(=O)c3ccccc3)c[nH]c2c1 | < 1 µg/mL |

----------
# Assay Overview: Aqueous solubility of the compound at pH 6.8 incubated for 24 hrs under shaking condition by LC-UV analysis
# Format: physicochemical
# Condition Info: aqueous medium

| Smiles | solubility thermodynamic at 24 h |
| --- | --- |
| COC(=O)c1ccc2c(C(=O)c3ccccc3)cc(C(=O)c3ccccc3)c-2cc1 | < 1 µg/mL |
| O=C(NCCc1cnc[nH]1)c1ccc2ccc(C(=O)c3ccccc3)c-2cc1 | < 1 µg/mL |
| O=C(Cn1ccccc1=O)Nc1cc2ccccc2[nH]1 | > 67 µg/mL |

----------
# Assay Overview: Octanol-water partition coefficient, logD of the compound at pH 11 by HPLC analysis
# Type: physicochemical
# Condition Info: read-out: logD
Form field: logD (one value per entry).

| Smiles | Censor Symbol | logD |
| --- | --- | --- |
| c1ccc2cc(CN3CCCCC3)ccc2c1 | > | 5.5 |
| COC(=O)c1ccc2[nH]cc(C(=O)c3ccccc3)c2c1 | = | 2.5 |
| NC(=O)C1CCN(C(=O)c2c[nH]c3ccccc23)CC1 | = | -0.2 |
| O=C(Nc1ccc2ccccc2c1)c1cccnc1 | = | 2.4 |
| CN1CCN(C(=O)c2ccc3c(c2)c(C(=O)c2ccccc2)cn3C)CC1 | = | 2 |
| Cn1cc(C(=O)c2ccccc2)c2cc(C(=O)NCCc3c[nH]c4ccccc34)ccc21 | = | 3.5 |
| O=C(NCc1cccnc1)c1ccc2ccc(C(=O)c3ccccc3)c-2cc1 | = | 1.4 |
| COC(=O)c1ccc2c(C(=O)c3ccccc3)cc(C(=O)c3ccccc3)c-2cc1 | = | 5.5 |
| NC(=O)C1CCN(C(=O)c2cccc3ccccc23)CC1 | = | 0.8 |
| O=C(NCCO)c1ccc2ccc(C(=O)c3ccccc3)c-2cc1 | = | 2.2 |
| Cn1cc(C(=O)N2CCC(C(N)=O)CC2)c2ccccc21 | = | 0.4 |
| COC(=O)c1ccc2ccc(C(=O)N(C)C)c-2cc1 | = | 2.1 |
| COC(=O)c1ccc2ccn(C(=O)c3ccccc3)c2c1 | = | 4.3 |
| O=C(Cn1ccccc1=O)Nc1cc2cccccc-2c1 | = | 1.7 |
| O=C(NCCc1cnc[nH]1)c1ccc2ccc(C(=O)c3ccccc3)c-2cc1 | = | 2.3 |
| CN(C)C(=O)c1c[nH]c2ccccc12 | = | 0.4 |
| CN(C)C(=O)c1cccc2ccccc12 | = | 1.8 |
| COC(=O)c1ccc2c(ccn2C(=O)c2ccccc2)c1 | = | 4.4 |
| COC(=O)c1ccc2c(C(=O)c3ccccc3)cn(C(=O)c3ccccc3)c2c1 | = | 5.2 |

Numbers sourced from ChEMBL document CHEMBL5120825.
